Reference for the values: the RepoRT retention time repository (doi:10.1016/j.aca.2012.07.013)

# TEST_PROTOCOL: RP, 50 × 2.1 mm, 1.7 µm, 0.5 mL/min, estimated dead time 0.22 min; A: 98% water + 2% acetonitrile + 0.1% formic acid, pH 3; B: 2% water + 98% acetonitrile + 0.1% formic acid, pH 3; gradient (min/%B) 0/0 0.5/0 4/60 8/100 9/100 9.2/0 10/0
# TEST_CONDITIONS: stereoisomer not certain
MEASUREMENT_KIND: LC retention time (min)

CCCCCCCCCCCCCC=CC(O)C([NH3+])COP(=O)([O-])O (configuration not stated) [sphingosine 1-phosphate] | 4.36
CCC=CCC=CCC=CCC=CCCCCCCC(=O)OCC(O)COP(=O)(O)OCCN (configuration not stated) [LPE (20:4(8Z,11Z,14Z,17Z)/0:0)] | 4.74
CCCCCCCCCCCCCCCCCCOCC(O)COP(=O)(O)OCC(N)C(=O)O (configuration not stated) | 4.52
CCC=CCC=CCC=CCC=CCC=CCC=CCCC(=O)OCC(O)COP(=O)([O-])OCC[N+](C)(C)C (configuration not stated) | 4.72
CC(CCC(=O)NCC(=O)O)C1CCC2C3C(O)CC4CC(O)CCC4(C)C3CCC12C (configuration not stated) | 3.78
CCCCCC=CCC=CCC=CCCCCCCC(=O)OCC(O)COP(=O)(O)OCCN (configuration not stated) | 4.71
Nc1ccc(C(F)(F)F)cc1 | 0.383
